# credit: ChEMBL document CHEMBL3885881

organism: Rattus norvegicus; experiment: DrugMatrix - Regimen: Daily Repeat; assay type: toxicity, organism-based, Sprague-Dawley; design: regimen Daily Repeat, gender Male, age 6-8 weeks; conditions: in vivo, po, 0 mg/kg, 72 h, tissue Blood, route oral GAVAGE, dose level Control, time 3 day, vehicle .5 % CMC
observable: ERYTHROCYTE COUNT (x10E6/uL)

Clc1ccc2c(c1)C(N1CCNCC1)=Nc1ccccc1O2 [AMOXAPINE]; 5.45
CNC(=C[N+](=O)[O-])NCCSCc1ccc(CN(C)C)o1 [RANITIDINE]; 5.76
N=C(N)NC(=O)c1nc(Cl)c(N)nc1N [AMILORIDE]; 6.2
C#C[C@]1(O)CC[C@H]2[C@@H]3CCc4cc(OC)ccc4[C@H]3CC[C@@]21C [MESTRANOL]; 5.76
CO[C@H]1/C=C/O[C@@]2(C)Oc3c(C)c(O)c4c(c3C2=O)C2=NC3(CCN(CC(C)C)CC3)NC2=C(NC(=O)/C(C)=C\C=C\[C@H](C)[C@H](O)[C@@H](C)[C@@H](O)[C@@H](C)[C@H](OC(C)=O)[C@@H]1C)C4=O [RIFABUTIN]; 5.76
CN1CCC(=C2c3ccccc3C=Cc3ccccc32)CC1 [CYPROHEPTADINE]; 6.03
C[C@](O)(CS(=O)(=O)c1ccc(F)cc1)C(=O)Nc1ccc(C#N)c(C(F)(F)F)c1 [(R)-BICALUTAMIDE]; 5.56
O=[N+]([O-])c1ccccc1 [NITROBENZENE]; 6.33

====

species on record: Rattus norvegicus; test: DrugMatrix - Regimen: Daily Repeat; assay type: toxicity, organism-based, Sprague-Dawley; set-up: regimen Daily Repeat, gender Male, age 6-8 weeks; conditions: in vivo, po, 0 mg/kg, 120 h, tissue Plasma, route oral GAVAGE, dose level Control, time 5 day, […]
In this section we review reported ASPARTATE AMINOTRANSFERASE values for a set of compounds.
observable: ASPARTATE AMINOTRANSFERASE (u/L)

C[C@]12CC[C@@H]3c4ccc(O)cc4CC[C@H]3[C@@H]1CC[C@@H]2O [ESTRADIOL]; 83.33
C[C@H]1O[C@@H](O[C@H]2[C@@H](O)C[C@H](O[C@H]3[C@@H](O)C[C@H](O[C@H]4CC[C@@]5(C)[C@H](CC[C@@H]6[C@@H]5CC[C@]5(C)[C@@H](C7=CC(=O)OC7)CC[C@]65O)C4)O[C@@H]3C)O[C@@H]2C)C[C@H](O)[C@@H]1O [DIGITOXIN]; 83.33
CC(=O)Nc1ccc(O)cc1 [ACETAMINOPHEN]; 83
COCCOC(=O)C1=C(C)NC(C)=C(C(=O)OC(C)C)C1c1cccc([N+](=O)[O-])c1 (centres undefined) [NIMODIPINE]; 88.5
CC/C(=C(/CC)c1ccc(O)cc1)c1ccc(O)cc1 [DIETHYLSTILBESTROL]; 84.5
CCCCCCCCc1ccc(O)cc1 [4-OCTYLPHENOL]; 89.17
Cc1cccc(Nc2ccncc2S(=O)(=O)NC(=O)NC(C)C)c1 [TORSEMIDE]; 83.33
O=NN(CCCl)C(=O)NCCCl [CARMUSTINE]; 83
CC(C)(Oc1ccc(C2CCCc3ccccc32)cc1)C(=O)O (centres undefined) [NAFENOPIN]; 80.83
CC(=O)Nc1cccc(O)c1 [METACETAMOL]; 93.67
CCOC(=O)C1=C(C)NC(C)=C(C(=O)OC)C1c1cccc([N+](=O)[O-])c1 (centres undefined) [NITRENDIPINE]; 88.5
CC(C)Cc1ccc(C(C)C(=O)O)cc1 (centres undefined) [IBUPROFEN]; 81.33
Clc1ccc(Cl)cc1 [1,4-DICHLOROBENZENE]; 80
COc1ccc2[nH]c([S+]([O-])Cc3ncc(C)c(OC)c3C)nc2c1 (centres undefined) [OMEPRAZOLE]; 142.33

====

species on record: Rattus norvegicus; experiment: DrugMatrix - Regimen: Daily Repeat; type: toxicity, organism-based, Sprague-Dawley; design: regimen Daily Repeat, gender Male, age 6-8 weeks; settings: in vivo, po, 0 mg/kg, 120 h, tissue Blood, route oral GAVAGE, dose level Control, time 5 day, […]
observable: PLATELET COUNT (x10E3/uL)

COc1ccc2[nH]c([S+]([O-])Cc3ncc(C)c(OC)c3C)nc2c1 (stereo not given) [OMEPRAZOLE]; 807.17
CCCCCCCCc1ccc(O)cc1 [4-OCTYLPHENOL]; 1097.83
CC(C)(Oc1ccc(C2CCCc3ccccc32)cc1)C(=O)O (stereo not given) [NAFENOPIN]; 909.83
CC(=O)Nc1ccc(O)cc1 [ACETAMINOPHEN]; 1052.67
CCOC(=O)C1=C(C)NC(C)=C(C(=O)OC)C1c1cccc([N+](=O)[O-])c1 (stereo not given) [NITRENDIPINE]; 883.83

====

In this section we review reported MONOCYTE values for a set of compounds.
organism: Rattus norvegicus; test: DrugMatrix - Regimen: Daily Repeat; format: toxicity, organism-based, Sprague-Dawley; parameters: regimen Daily Repeat, gender Male, age 6-8 weeks; settings: in vivo, po, 0 mg/kg, 72 h, tissue Blood, route oral GAVAGE, dose level Control, time 3 day, vehicle 100 % WATER
observable: MONOCYTE (%)

CC(C)(C)c1ccc(C(=O)CCCN2CCC(OC(c3ccccc3)c3ccccc3)CC2)cc1 [EBASTINE]; 0.5
ClC(Cl)Cl [CHLOROFORM]; 1.17
COC(=O)C1=C(C)NC(C)=C(C(=O)OCC(C)C)C1c1ccccc1[N+](=O)[O-] (centres undefined) [NISOLDIPINE]; 0.17
C[N+](C)(C)CCO.[Cl-] [CHOLINE CHLORIDE]; 0.67
CC(C)C[C@H](NC(=O)[C@@H](O)[C@H](N)Cc1ccccc1)C(=O)O [UBENIMEX]; 0.83
CC(C)NCC(O)COc1cccc2ccccc12 (centres undefined) [PROPRANOLOL]; 2.67
Nc1ccn([C@@H]2CS[C@H](CO)O2)c(=O)n1 [LAMIVUDINE]; 0.67
Cc1ncc([N+](=O)[O-])n1CCO [METRONIDAZOLE]; 1.17
C[C@@H]1C[C@@H]([C@H](O)CC2CC(=O)NC(=O)C2)C(=O)[C@@H](C)C1 [CYCLOHEXIMIDE]; 2.83

====

species: Rattus norvegicus; experiment: DrugMatrix - Regimen: Daily Repeat; type: toxicity, organism-based, Sprague-Dawley; design: regimen Daily Repeat, gender Male, age 6-8 weeks; conditions: in vivo, po, 0 mg/kg, 72 h, tissue Blood, route oral GAVAGE, dose level Control, time 3 day, vehicle .5 % CMC
In this section we review reported PLATELET COUNT values for a set of compounds.
observable: PLATELET COUNT

O=[N+]([O-])c1ccccc1; 1204.5 x10E3/uL
CN1C(=O)COc2c(C(=O)NC3CN4CCC3CC4)cc(Cl)cc21 (stereo not drawn); 1298 x10E3/uL
C[C@](O)(CS(=O)(=O)c1ccc(F)cc1)C(=O)Nc1ccc(C#N)c(C(F)(F)F)c1 [(R)-BICALUTAMIDE]; 1342 x10E3/uL
CNC(=C[N+](=O)[O-])NCCSCc1ccc(CN(C)C)o1; 1250.83 x10E3/uL
OC(CCN1CCCCC1)(c1ccccc1)C1CCCCC1 (stereo not drawn); 1162.33 x10E3/uL
CC(C)[C@H]1CC[C@H](C(=O)N[C@H](Cc2ccccc2)C(=O)O)CC1 [NATEGLINIDE]; 866.17 x10E3/uL
CC(=O)CC(c1ccccc1)c1c(O)c2ccccc2oc1=O (stereo not drawn); 1184.67 x10E3/uL
Cc1onc(-c2ccccc2)c1-c1ccc(S(N)(=O)=O)cc1; 1378.2 x10E3/uL

====

organism: Rattus norvegicus; experiment: DrugMatrix - Regimen: Daily Repeat; format: toxicity, organism-based, Sprague-Dawley; parameters: regimen Daily Repeat, gender Male, age 6-8 weeks; settings: in vivo, iv, 0 mg/kg, 120 h, tissue Plasma, dose level Control, time 5 day, vehicle 100 % SALINE
observable: CHOLESTEROL (mg/dL)

CCC1=C[C@@H]2CN(C1)Cc1c([nH]c3ccccc13)[C@@](C(=O)OC)(c1cc3c(cc1OC)N(C)[C@H]1[C@@](O)(C(=O)OC)[C@H](OC(C)=O)[C@]4(CC)C=CCN5CC[C@]31[C@@H]54)C2 [VINORELBINE]; 63.67
CC(=O)N[C@@H]1[C@H](Oc2c3cc4cc2Oc2ccc(cc2Cl)[C@@H](O[C@@H]2O[C@@H](CO)[C@@H](O)[C@H](O)[C@@H]2NC(C)=O)[C@@H]2NC(=O)[C@H](NC(=O)[C@@H]4NC(=O)[C@H]4NC(=O)[C@@H](Cc5ccc(c(Cl)c5)O3)NC(=O)[C@H](N)c3ccc(O)c(c3)Oc3cc(O)cc4c3)c3ccc(O)c(c3)-c3c(O[C@H]4O[C@H](CO)[C@@H](O)[C@@H](O)[C@@H]4O)cc(O)cc3[C@@H](C(=O)O)NC2=O)O[C@@H](CO)[C@@H](O)[C@@H]1O; 67.5
COc1cccc2c1C(=O)c1c(O)c3c(c(O)c1C2=O)C[C@@](O)(C(=O)CO)C[C@@H]3O[C@H]1C[C@H](N)[C@H](O)[C@H](C)O1 [DOXORUBICIN]; 68
